The measured values listed here are drawn from patent US20080319001A1.

# PROTOCOL TEXT: Pharmacokinetic evaluation in mice (plasma kinetics)
# Format: in vivo, mouse
# CONDITION LABEL: female, MF1, mouse, unit inferred
READOUT: AUC(0-t)

compound="O=C(CCN1CCCC1)Nc1ccc2c(NCc3ccc(F)c(F)c3)c3ccc(NC(=O)CCN4CCCC4)cc3nc2c1 [BSG17]" result="1.23 µM·h"
compound="CN(C)c1ccc(Nc2c3ccc(NC(=O)CCN4CCCC4)cc3nc3cc(NC(=O)CCN4CCCC4)ccc23)cc1 [BSG01]" result="0.96 µM·h"

----------
# PROTOCOL TEXT: pKa measurement (Sirius GlpKa, potentiometric and UV titration)
# Assay type: physicochemical
# CONDITION LABEL: titration medium, ionic strength adjusted with 0.15 M KCl, potentiometry, incomplete curves; read-out: pKa from potentiometry
READOUT: pKa

compound="CN(C)c1ccc(Nc2c3ccc(NC(=O)CCN4CCCC4)cc3nc3cc(NC(=O)CCN4CCCC4)ccc23)cc1 [BSG01]" measured_number=4.15

----------
# PROTOCOL TEXT: pKa measurement (Sirius GlpKa, potentiometric and UV titration)
# Type: physicochemical
# CONDITION LABEL: potentiometric in aqueous/MeOH, Yasuda-Shedlovsky extrapolation to 0% MeOH; read-out: Measured pKa, pKa3
READOUT: pKa

chemical_string=O=C(CCN1CCCC1)Nc1ccc2c(NCc3ccc(F)c(F)c3)c3ccc(NC(=O)CCN4CCCC4)cc3nc2c1 readout=pKa measured_number=9.61
chemical_string=CN(C)c1ccc(Nc2c3ccc(NC(=O)CCN4CCCC4)cc3nc3cc(NC(=O)CCN4CCCC4)ccc23)cc1 readout=pKa measured_number=9.08

----------
Overview of reported solubility at 24 h across a group of molecules:
# PROTOCOL TEXT: Thermodynamic solubility
# Format: physicochemical
# CONDITION LABEL: 0.9% saline, saline or isotonic, thermodynamic from solid; 0.9% NaCl, 24 hours; read-out: Solubility Free Base equivalent
READOUT: solubility at 24 h

molecule="CN(C)c1ccc(Nc2c3ccc(NC(=O)CCN4CCCC4)cc3nc3cc(NC(=O)CCN4CCCC4)ccc23)cc1 [BSG01]" result="< 1 µg/mL"
molecule="O=C(CCN1CCCC1)Nc1ccc2c(NCc3ccc(F)c(F)c3)c3ccc(NC(=O)CCN4CCCC4)cc3nc2c1 [BSG17]" result="< 1 µg/mL"

----------
# PROTOCOL TEXT: HPLC solution stability
# Format: physicochemical
# CONDITION LABEL: 5% Dextrose mixed with 50% IPA, 7 days, 25 ° C.
READOUT: Purity larger rotamer peak

chemical_string=O=C(CCN1CCCC1)Nc1ccc2c(NCc3ccc(F)c(F)c3)c3ccc(NC(=O)CCN4CCCC4)cc3nc2c1 result=22.3
chemical_string=CN(C)c1ccc(Nc2c3ccc(NC(=O)CCN4CCCC4)cc3nc3cc(NC(=O)CCN4CCCC4)ccc23)cc1 result=35.2%

----------
# PROTOCOL TEXT: Log P (summary of biological and physicochemical properties, Table 4)
READOUT: logP

chemical_string=CN(C)c1ccc(Nc2c3ccc(NC(=O)CCN4CCCC4)cc3nc3cc(NC(=O)CCN4CCCC4)ccc23)cc1 readout=logP result=1.4
chemical_string=O=C(CCN1CCCC1)Nc1ccc2c(NCc3ccc(F)c(F)c3)c3ccc(NC(=O)CCN4CCCC4)cc3nc2c1 readout=logP result=1.59

----------
# PROTOCOL TEXT: LogP/D measurement (octanol/ISA water titration)
# Format: physicochemical
# CONDITION LABEL: octanol/ISA (ionic strength adjusted) water, pH 6; read-out: Measured LogD pH 6
READOUT: logD

compound="O=C(CCN1CCCC1)Nc1ccc2c(NCc3ccc(F)c(F)c3)c3ccc(NC(=O)CCN4CCCC4)cc3nc2c1 [BSG17]" result=-0.15
compound="CN(C)c1ccc(Nc2c3ccc(NC(=O)CCN4CCCC4)cc3nc3cc(NC(=O)CCN4CCCC4)ccc23)cc1 [BSG01]" result=-2.56

----------
# PROTOCOL TEXT: pKa measurement (Sirius GlpKa, potentiometric and UV titration)
# Type: physicochemical
# CONDITION LABEL: aqueous UV; read-out: pKa from aqueous UV measurement
READOUT: pKa

chemical_string=CN(C)c1ccc(Nc2c3ccc(NC(=O)CCN4CCCC4)cc3nc3cc(NC(=O)CCN4CCCC4)ccc23)cc1 measured_number=4.14

----------
# PROTOCOL TEXT: Pharmacokinetic evaluation in mice (plasma kinetics)
# Format: in vivo, mouse
# CONDITION LABEL: female, MF1, mouse, Table 3
READOUT: AUC(0-t) (µM·h)

chemical_string=CN(C)c1ccc(Nc2c3ccc(NC(=O)CCN4CCCC4)cc3nc3cc(NC(=O)CCN4CCCC4)ccc23)cc1 measured_number=0.96
chemical_string=O=C(CCN1CCCC1)Nc1ccc2c(NCc3ccc(F)c(F)c3)c3ccc(NC(=O)CCN4CCCC4)cc3nc2c1 measured_number=1.23

----------
# PROTOCOL TEXT: Cytotoxicity / growth inhibition, MCF7
# Type: cell-based
# CONDITION LABEL: human, MCF7 cells; read-out: Cytotoxic IC50 vs. MCF7
Overview of reported IC50 at 96 h across a group of compounds:
READOUT: IC50 at 96 h

chemical_string=O=C(CCN1CCCC1)Nc1ccc2c(NCc3ccc(F)c(F)c3)c3ccc(NC(=O)CCN4CCCC4)cc3nc2c1 result="2260 nM"
chemical_string=CN(C)c1ccc(Nc2c3ccc(NC(=O)CCN4CCCC4)cc3nc3cc(NC(=O)CCN4CCCC4)ccc23)cc1 result="2530 nM"

----------
# PROTOCOL TEXT: Thermodynamic solubility
# Type: physicochemical
# CONDITION LABEL: deionised water, thermodynamic from solid; Water, 24 hours; read-out: Solubility Free Base equivalent
# Protocol: Thermodynamic solubility values were determined in each of 0.1M HCl, Deionised water, pH6.8 phosphate buffer, 0.9% saline and 5% dextrose. […] A reference solution was prepared in DMSO for comparison and calculation of the test solubilities. XRPD patterns were measured of remaining solids from experiments where complete dissolution was not achieved. […]
READOUT: solubility at 24 h

chemical_string=CN(C)c1ccc(Nc2c3ccc(NC(=O)CCN4CCCC4)cc3nc3cc(NC(=O)CCN4CCCC4)ccc23)cc1 result="< 1 µg/mL"
chemical_string=O=C(CCN1CCCC1)Nc1ccc2c(NCc3ccc(F)c(F)c3)c3ccc(NC(=O)CCN4CCCC4)cc3nc2c1 result="20 µg/mL"

----------
Overview of reported solubility at 24 h across a group of molecules:
# PROTOCOL TEXT: Thermodynamic solubility
# Type: physicochemical
# CONDITION LABEL: saline or isotonic, thermodynamic from solid; 5% Dextrose, 24 hours; read-out: Solubility Free Base equivalent
READOUT: solubility at 24 h

molecule="CN(C)c1ccc(Nc2c3ccc(NC(=O)CCN4CCCC4)cc3nc3cc(NC(=O)CCN4CCCC4)ccc23)cc1 [BSG01]" readout="solubility at 24 h" result="220 µg/mL"
molecule="O=C(CCN1CCCC1)Nc1ccc2c(NCc3ccc(F)c(F)c3)c3ccc(NC(=O)CCN4CCCC4)cc3nc2c1 [BSG17]" readout="solubility at 24 h" result="300 µg/mL"

----------
# PROTOCOL TEXT: pKa measurement (Sirius GlpKa, potentiometric and UV titration)
# Assay type: physicochemical
# CONDITION LABEL: potentiometric in aqueous/MeOH, Yasuda-Shedlovsky extrapolation to 0% MeOH; read-out: Measured pKa, pKa4
# Method: Pka determination was performed on a Sirius GlpKa instrument equipped with a D-PAS (Dip-Probe Absorption Spectroscopy) attachment. Measurements were made by potentiometric and UV titration in MeOH:H2O mixtures at 25° C. The titration media was ionic strength adjusted with 0.15 M KCl. The values found in the MeOH:H2O mixtures were extrapolated to 0% co-solvent via a Yasuda-Shedlovsky extrapolation. Prediction of pKa values was made using ACD v8.07 software. […]
READOUT: pKa

chemical_string=CN(C)c1ccc(Nc2c3ccc(NC(=O)CCN4CCCC4)cc3nc3cc(NC(=O)CCN4CCCC4)ccc23)cc1 measured_number=9.31

----------
# PROTOCOL TEXT: Cytotoxicity / growth inhibition, DU145
# Assay type: cell-based
# CONDITION LABEL: human, DU145 cells; read-out: Cytotoxic IC50 vs. DU145
Overview of reported IC50 at 96 h across a group of molecules:
READOUT: IC50 at 96 h (µM)

molecule="O=C(CCN1CCCC1)Nc1ccc2c(NCc3ccc(F)c(F)c3)c3ccc(NC(=O)CCN4CCCC4)cc3nc2c1 [BSG17]" measured_number=9.75
molecule="CN(C)c1ccc(Nc2c3ccc(NC(=O)CCN4CCCC4)cc3nc3cc(NC(=O)CCN4CCCC4)ccc23)cc1 [BSG01]" measured_number=2.3

----------
# PROTOCOL TEXT: Thermodynamic solubility
# Assay type: physicochemical
# CONDITION LABEL: aqueous buffer, thermodynamic from solid; pH 6.8 phosphate buffer, 24 hours; read-out: Solubility Free Base equivalent
READOUT: solubility at 24 h (µg/mL)

compound="O=C(CCN1CCCC1)Nc1ccc2c(NCc3ccc(F)c(F)c3)c3ccc(NC(=O)CCN4CCCC4)cc3nc2c1 [BSG17]" readout="solubility at 24 h" measurement_units=µg/mL measured_number=1950
compound="CN(C)c1ccc(Nc2c3ccc(NC(=O)CCN4CCCC4)cc3nc3cc(NC(=O)CCN4CCCC4)ccc23)cc1 [BSG01]" readout="solubility at 24 h" measurement_units=µg/mL measured_number=2630
